- target.system: DfrK (Staphylococcus aureus)
endpoint.name: Ki (nM)
Numbers only, in nM.

Please look at this molecule and report its Ki: CN(Cc1cnc2nc(N)nc(N)c2n1)c1ccc(C(=O)N[C@@H](CCC(=O)O)C(=O)O)cc1 [Methotrexate] 2.5

---

Assign Ki to each entry below.
- target.system: DfrG (Staphylococcus aureus)
One number for each entry, in nM.

{"columns": ["molecule", "Ki [nM]"],
 "data": [
  ["COc1cc(Cc2cnc(N)nc2N)c2c(c1OC)OC(C1CC1)C=C2 (centres unmarked)", 1350]
]}

Now look at this one.
Please look at this molecule and report its Ki: CN(Cc1cnc2nc(N)nc(N)c2n1)c1ccc(C(=O)N[C@@H](CCC(=O)O)C(=O)O)cc1 [Methotrexate] 1.8

---

So I've got Ki readings for DfrA (Staphylococcus aureus, UniProt P13955), take a look.
Give bare numbers, in nM.

{"columns": ["molecule", "uom", "Ki"],
 "data": [
  ["CN(Cc1cnc2nc(N)nc(N)c2n1)c1ccc(C(=O)N[C@@H](CCC(=O)O)C(=O)O)cc1 [Methotrexate]", "nM", 0.38]
]}

Now look at this one.
Please look at this molecule and report its Ki: COc1cc(Cc2cnc(N)nc2N)c2c(c1OC)OC(C1CC1)C=C2 (centres unmarked) 90
